Parameter GI50, tested on MDA-MB-435, listed per item.
OBSERVABLE: GI50

compound=O=C1c2ccccc2C(=O)N1c1ccc(S(=O)(=O)Nc2ncccn2)cc1 recorded_measurement="> 100000 nM"
compound=C#C[C@]1(O)CC[C@H]2[C@@H]3CC=C4c5sc(N=C(N)N)nc5CC[C@]4(C)[C@H]3CC[C@@]21C recorded_measurement="700 nM"
compound=CC(=O)O[C@H]1CC[C@]2(C)[C@H]3CC[C@@H]4[C@H]5[C@H](C(C)C)CC[C@]5(C(=O)OCC(CO)(CO)N=C(N)N)CC[C@@]4(C)[C@]3(C)CC[C@H]2C1(C)C recorded_measurement="1640 nM"
compound=O=C1OCC(C#Cc2ccccc2)=C1Cl recorded_measurement="6920 nM"
compound="COCCOC(=O)C1=C(C)NC2=C(C(=O)CC(c3ccccc3OC)C2)C1c1cccc(O)c1 (configuration not stated)" recorded_measurement="5310 nM"
compound=ClCCN(CCCl)c1ccc(-n2cnc3c(Cl)ncnc32)cc1 recorded_measurement="2040 nM"
compound=Brc1ccc([I+]c2ccc(Br)cc2)cc1 recorded_measurement="1940 nM"
